B1: HDV Ribozyme (parent)
chain: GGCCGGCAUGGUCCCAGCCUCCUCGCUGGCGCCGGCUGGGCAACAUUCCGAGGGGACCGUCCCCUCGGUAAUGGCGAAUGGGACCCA

Variants of: B1
assay_overview: self-cleavage, relative activity (ratio to wild type); higher = more cleavage; co-transcriptional
Assign true (1) to entries whose self-cleavage meets or exceeds 0.3; assign false (0) to the rest.

[[record]]
var = "G5C C24U"
assigned_label = "false (0)"

[[record]]
var = "C66G G80U"
assigned_label = "false (0)"

[[record]]
var = "C7G C22A"
assigned_label = "false (0)"

[[record]]
var = "C44U U60G"
assigned_label = "true (1)"

[[record]]
var = "G11U C61U"
assigned_label = "true (1)"

